Some binders, each annotated with its measured percent blocking.
- targetOrTestSystem: recombinant his-tagged homotrimeric SARS-CoV-2 spike protein (SARS-CoV-2, UniProt P0DTC2 16-1211)
- protocolDescription: flow cytometry, blocking of binding to hACE-2 cells

binder: 1035762 (antibody, V domains shown) VH: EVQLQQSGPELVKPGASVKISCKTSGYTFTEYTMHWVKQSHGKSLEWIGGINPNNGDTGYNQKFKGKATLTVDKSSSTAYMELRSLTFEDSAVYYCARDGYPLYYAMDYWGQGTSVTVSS VL: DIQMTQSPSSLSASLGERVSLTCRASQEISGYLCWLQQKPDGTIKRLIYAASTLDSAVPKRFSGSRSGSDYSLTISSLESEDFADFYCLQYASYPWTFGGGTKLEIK
unitAbbrev: %
percent blocking: 93
//
binder: 1035419 (antibody, V domains shown) VH: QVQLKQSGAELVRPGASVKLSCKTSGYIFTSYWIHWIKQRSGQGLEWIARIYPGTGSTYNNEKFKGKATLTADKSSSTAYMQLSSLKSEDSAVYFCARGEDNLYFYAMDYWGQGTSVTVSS VL: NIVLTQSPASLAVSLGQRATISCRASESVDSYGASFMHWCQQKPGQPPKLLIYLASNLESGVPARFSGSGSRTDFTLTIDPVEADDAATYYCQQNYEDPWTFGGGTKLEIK
unitAbbrev: %
percent blocking: 89
//
binder: 1035752 (antibody, V domains shown) VH: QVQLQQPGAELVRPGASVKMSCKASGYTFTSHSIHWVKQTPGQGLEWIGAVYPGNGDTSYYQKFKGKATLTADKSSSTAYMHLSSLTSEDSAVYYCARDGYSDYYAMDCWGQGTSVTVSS VL: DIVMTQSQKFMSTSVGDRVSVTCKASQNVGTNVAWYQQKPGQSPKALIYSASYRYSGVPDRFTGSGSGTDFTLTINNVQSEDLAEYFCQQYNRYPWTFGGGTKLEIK
unitAbbrev: %
percent blocking: 91.8
//
binder: 1035224 (antibody, V domains shown) VH: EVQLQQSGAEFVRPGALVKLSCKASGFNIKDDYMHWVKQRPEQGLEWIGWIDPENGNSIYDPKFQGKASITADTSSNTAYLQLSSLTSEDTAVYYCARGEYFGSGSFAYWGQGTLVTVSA VL: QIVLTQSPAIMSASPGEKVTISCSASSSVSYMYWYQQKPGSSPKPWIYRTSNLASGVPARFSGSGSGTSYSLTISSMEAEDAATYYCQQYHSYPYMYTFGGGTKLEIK
unitAbbrev: %
percent blocking: 96.6
//
binder: 1035740 (antibody, V domains shown) VH: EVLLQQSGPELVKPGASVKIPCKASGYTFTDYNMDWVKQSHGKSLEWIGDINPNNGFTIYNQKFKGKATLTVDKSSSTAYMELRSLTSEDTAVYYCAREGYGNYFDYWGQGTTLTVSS VL: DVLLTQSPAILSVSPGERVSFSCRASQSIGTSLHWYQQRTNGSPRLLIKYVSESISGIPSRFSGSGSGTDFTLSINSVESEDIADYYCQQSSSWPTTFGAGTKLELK
unitAbbrev: %
percent blocking: 96.5

This collection of values is drawn from patent US20230408517A1.
